Target: T1, huCD3e-mFc (human, UniProt P07766 23-126)
T1 construct: not shown: mFc, not described
T1 sequence (P07766 23-126): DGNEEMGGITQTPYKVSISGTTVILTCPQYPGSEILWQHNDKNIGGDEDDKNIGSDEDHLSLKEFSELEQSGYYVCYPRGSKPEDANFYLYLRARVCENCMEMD
Test: Pool 3 screen
Friendly reminder: Kd below 5 nM is YES, at or above is NO.

>>> group_label("AC3797 (CD3.293) (scFv, V domains shown, Pool 3 format (remarks)) VH: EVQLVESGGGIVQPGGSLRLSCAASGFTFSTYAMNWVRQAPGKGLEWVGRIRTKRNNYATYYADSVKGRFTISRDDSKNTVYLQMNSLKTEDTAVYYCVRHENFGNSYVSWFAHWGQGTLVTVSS VL: ELVVTQEPSLTVSPGGTVTLTCRSSNGAVTSSNYANWVQQKPGQAPRGLIGGTNKRAPGTPARFSGSALGGKAALTLSGVQPEDEAVYYCALWYPNLWVFGGGTKLTVL")
"YES"
>>> group_label("AC3867 (CD3.363) (scFv, V domains shown, Pool 3 format (remarks)) VH: EVQLVESGGGIVQPGGSLRLSCAASGFTFSTYAMNWVRQAPGKGLEWVGRIRTKTNDYATYYADSVKGRFTISRDDSKNTAYLQMNSLKTEDTAVYYCVRHENFGNSYVSWFAHWGQGTLVTVSS VL: ELVVTQEPSLTVSPGGTVTLTCRSSNGAVTSSNYANWVQQKPGQAPRGLIGGTNKRAPGTPARFSGSLLEGKAALTLSGVQPEDEAVYYCALWYPNLWVFGGGTKLTVL")
"NO"

Exercise: Input AC3849 (CD3.345) (scFv, V domains shown, Pool 3 format (remarks)) VH: EVQLVESGGGIVQPGGSLRLSCAASGFTFNTYAMNWVRQAPGKGLEWVGRIRTKTNDYATYYADSVKGRFTISRDDSKNTLYLQMNSLKTEDTAVYYCVRHENFGNSYVSWFAHWGQGTLVTVSS VL: ELVVTQEPSLTVSPGGTVTLTCRSSNGAVTSSNYANWVQQKPGQAPRGLIGGTNKRAPGTPARFSGSLLEGKAALTLSGVQPEDEAVYYCALWYPNLWVFGGGTKLTVL ; condition: Kd strictly below 5 nM. Does it hold?
Key: NO

Exercise: Hello, I'm reviewing records and need to know if Kd of AC3824 (CD3.320) (scFv, V domains shown, Pool 3 format (remarks)) VH: EVQLVESGGGIVQPGGSLRLSCAASGFTFNTYAMNWVRQAPGKGLEWVGRIRTKTNNYATYYADSVKGRFTISRDDSKNTVYLQMNSLKTEDTAVYYCVRHENFGNSYVSWFAHWGQGTLVTVSS VL: ELVVTQEPSLTVSPGGTVTLTCRSSNGAVTSSNYANWVQQKPGQAPRGLIGGTNKRAPGTPARFSGSALGGKAALTLSGVQPEDEAVYYCALWYPNLWVFGGGTKLTVL is below 5 nM. Could you check?
Key: NO
